test system: RARg homodimer (NR concentration 270 nM); assay: PBM binding z-score (relative to random genomic background probes); higher = stronger binding; sequences stand for … in GC…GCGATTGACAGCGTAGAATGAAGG
Please provide measured PBM binding z-score for the entries that follow.
Answers are plain numbers.

Report PBM binding z-score for each item below.
1. CGAACTAGGTCATCGACAGGACAGTGAATAGTAA
2. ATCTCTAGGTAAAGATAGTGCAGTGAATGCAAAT
3. CCTTACGGGTCACGAGGTTATAGCACGACGAGCG
4. CGAACGAGGGCATGAGTAGATAGCAAATGCCGAT

4.87
0.36
5.47
1.57

###

tested on: RARa:RXR (NR concentration 270 nM, RXRa partner concentration 90 nM); assay: PBM binding z-score (relative to random genomic background probes); higher = stronger binding; sequences stand for … in GC…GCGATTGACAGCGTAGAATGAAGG
Please provide measured PBM binding z-score for the entries that follow.
Numbers only.

Below, 3 sequences whose answers are already recorded.
>>> observed("TTACCAAGGTGAGCTTAGGTCGTTGATCCAACTC")
0.665
>>> observed("GCTTGTTGATCAAGGTTAAGAAAGACTAAGCTAA")
0.658
>>> observed("ATACCAAGGTGATCGTGAGGTCGTTGATACTAAC")
1.82

Report PBM binding z-score for each item below.
1. CGTCAAAGTTCAACTAAAGTAACGTAAAGCACGC
2. TCTAGCATGCCAGAGGGTCACTCAAGAGGTACGG
3. CGAACTAGGTCATTGACAGGACAGTGTATAGTAA
4. AGTCAAAGTTCAGGACGAGGCAACGTAAAGCACG

4.03
2.86
2.47
1.89

Report PBM binding z-score for each item below.
1. CCTACTGGGCCATTCAGAGGTCATTCATCATATG
2. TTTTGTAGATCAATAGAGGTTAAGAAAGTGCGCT
3. GTACCAAGGTTAATAGGTCGTTGATGAGTAGGCG
4. ATCTCTAGGTAACCAAGTTCATTGAATGCCGAAC
5. GCTCGGAGCACAAGGTCAGAGCTTTGTCCGTAGA
6. GCTCCTAGGTCAGGTTGGTCAGCTAACGGGTACG
7. CCTGCTATGTCATGGTCAGCTAATCTACAGTATG
8. GCTCGGAAGACAAGGTCAGAGCTTTGTCCGTAGA

1. 4.07
2. 2.2
3. 2.82
4. 1.72
5. 1.75
6. 1.26
7. -0.187
8. 1.9

Report PBM binding z-score for each item below.
1. GCGACTGGGGCAAAGCAGGTTACTATAAGGTTGG
2. CCTTACGGGTCACTCCAGGTTATAGCGTCGGAGT
3. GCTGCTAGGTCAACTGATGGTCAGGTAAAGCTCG
4. ATACCTAGGTGATCGTGAGGTCGTTGATACTAAC

0.949
4.18
3.15
2.04

Report PBM binding z-score for each item below.
1. CCGACTGGGGCATAGGTTACCATACTCAGTACGA
2. CCTCGGAGGACAACAGGAAGTCAGAGCTGCCAGA

1. 0.637
2. -0.454

###

system: THRa:RXRa (NR concentration 90 nM, RXRa partner concentration 90 nM); assay: PBM binding z-score (relative to random genomic background probes); higher = stronger binding; sequences stand for … in GC…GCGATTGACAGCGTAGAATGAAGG
Use TRUE when the recorded PBM binding z-score is no lower than 1; use FALSE when it is lower.

Examples with answers:
>>> label("AGTTAAAGTTCATCTAGGTAACGTAAGATATGCT")
"TRUE"
>>> label("ACTAGCAGGCCAAGGGTCACGCAAGATTAGTCCG")
"TRUE"
>>> label("TTACCAAGGTGATCTGAGGTCGTTGATCCAACTC")
"TRUE"
>>> label("CCTGCTAGGTCAATGGTCAACTAAAGCAGCTCGC")
"TRUE"
>>> label("TCTAGCAAGCCAGAGGGTCACTCAAGAGGTACGG")
"TRUE"
>>> label("ATACCAAGGTGATCGTTAGGTCGTTGATACTAAC")
"TRUE"

Decide: PBM binding z-score of CATAGCAGGCCAATCTGGGTCACTCAAGGCTTGA >= 1?
TRUE

Decide: PBM binding z-score of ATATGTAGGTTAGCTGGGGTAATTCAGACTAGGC >= 1?
TRUE

Decide: PBM binding z-score of CCTAGTTGCTCAAGGTCACACACGCTATAGGTAC >= 1?
TRUE

Decide: PBM binding z-score of TGTCAAAGTTCAAAGGTAACGTAAGTATCCACAC >= 1?
TRUE

Decide: PBM binding z-score of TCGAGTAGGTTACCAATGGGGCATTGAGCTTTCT >= 1?
FALSE
